Target: T1, FcRL6, overexpressed on 3T3 cells (UniProt Q6DN72 20-434, limits assumed)
T1 construct: whole, on cells
T1 sequence (looked up): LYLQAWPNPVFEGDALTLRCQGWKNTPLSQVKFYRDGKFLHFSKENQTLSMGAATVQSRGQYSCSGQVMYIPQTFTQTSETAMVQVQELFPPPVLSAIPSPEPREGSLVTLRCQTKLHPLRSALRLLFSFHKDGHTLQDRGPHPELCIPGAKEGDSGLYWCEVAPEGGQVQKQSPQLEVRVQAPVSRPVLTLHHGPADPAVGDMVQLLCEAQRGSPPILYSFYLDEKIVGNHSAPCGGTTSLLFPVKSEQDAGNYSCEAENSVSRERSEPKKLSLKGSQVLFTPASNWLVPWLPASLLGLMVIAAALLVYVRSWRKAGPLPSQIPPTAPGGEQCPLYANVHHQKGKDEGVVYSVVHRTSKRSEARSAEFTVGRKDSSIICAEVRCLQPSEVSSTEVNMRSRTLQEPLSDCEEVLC
Experiment: phage clone on 3T3-FcRL6 cells
metricName: binding result

{"binder": "ET200-037 (scFv, screened as phage clone; entry is VL-linker-VH-His tag-HA tag) scFv: SYVLTQPPSVSVAPGKTARITCGGNNIGSKSVHWYQQKPGQAPVLVIYYDSDRPSGIPERFSGSNSGNTATLTISRVEAGDEADYYCQVWDSSSDHPYVFGTGTKVTVLGSRGGGGSGGGGSGGGGSLEMAQMQLVQSGAEVKKPGASVKVSCKASGYTFTSYGISWVRQAPGQGLEWMGWISAYNGNTNYAQKLQGRVTMTTDTSTSTAYMELRSLRSDDTAVYYCARSMFGAHDSWGQGTLVTVSSTSGQAGQHHHHHHGAYPYDVPDYAS", "metricName": "binding result", "observedValue": "no binding"}
{"binder": "ET200-033 (scFv, screened as phage clone; entry is VL-linker-VH-His tag-HA tag) scFv: NFMLTQPHSVSESPGKTVTISCTGSSGSIASNYVQWYQQRPGSAPTTVIYEDNQRPSGVPDRFSGSIDSSSNSASLTISGLKTEDEADYYCQSYDSSNHWVFGGGTKLTVLGSRGGGGSGGGGSGGGGSLEMAQVQLQQWGAGLLKPSETLSLTCAVYGGSFSGYYWSWIRQPPGKGLEWIGEITHSGRSNYNPSLKSRVTISVDTSKNQFSLKLSSVTAADTAVYYCARSSIMSDYWGQGTLVTVSSTSGQAGQHHHHHHGAYPYDVPDYAS", "metricName": "binding result", "observedValue": "no binding"}
{"binder": "ET200-121 (scFv, screened as phage clone; entry is VL-linker-VH-His tag-HA tag) scFv: QSVLTQPPSVSGAPGQRVTVSCTGSRSNIGAGYDVHWYQQLPGTAPKLLIYGNSNRPPGVPDRFSGSKSGTSASLVITGLQAEDAADYYCQSYDNTVRESPYVFGTGTKVTVLGSRGGGGSGGGGSGGGGSLEMAEVQLVQSGAEVKKPGASVKVSCKVSGYTLTELSMHWVRQAPGKGLEWMGGFDPEDGETIYAQKFQGRVTMTEDTSTDTAYMELSSLRSEDTAVYYCATESNLVSRHYYYYGMDVWGQGTTVTVSSTSGQAGQHHHHHHGAYPYDVPDYAS", "metricName": "binding result", "observedValue": "no binding"}
{"binder": "ET200-106 (scFv, screened as phage clone; entry is VL-linker-VH-His tag-HA tag) scFv: SYELTQPPAASGTPGQRVTISCSGGVSNIGSGALNWYQQLPGTAPKLLIYSYNQRPSGVSDRFSGSRSATSASLAISGLQSEDEADYYCATWDDSVNGWVFGGGTKLTVLGSRGGGGSGGGGSGGGGSLEMAEVQLVESGAEVKKPGDSVKVSCKPSGYNFLNYGINWVRQAPGQGLEWMGWISTYTGNTNYAQKLQGRVTFTTDTSTSTAYMEMRSLRSDDTAVYYCARQQGGGWYDVWGQGTLVTVSSTSGQAGQHHHHHHGAYPYDVPDYAS", "metricName": "binding result", "observedValue": "no binding"}
{"binder": "ET200-035 (scFv, screened as phage clone; entry is VL-linker-VH-His tag-HA tag) scFv: NFMLTQPHSVSESPGKTVTISCTRSSGSIASNYVQWYQQRPGSAPTTVIYEDNQRPSGVPDRFSGSIDSSSNSASLTISGLKTEDEADYYCQSYDSTNWVFGGGTKLTVLGSRGGGGSGGGGSGGGGSLEMAQVQLVQSGAEVKKPGSSVKVSCKASGGTFSSYAISWVRQAPGQGLEWMGGIIPIFGTANYAQKFQGRVTITADESTSTAYMELSSLRSEDTAVYYCARYNYYFNDYWGQGTLVTVSSTSGQAGQHHHHHHGAYPYDVPDYAS", "metricName": "binding result", "observedValue": "no binding"}
{"binder": "ET200-019 (scFv, screened as phage clone; entry is VL-linker-VH-His tag-HA tag) scFv: NFMLTQPHSVSESPGKTVTISCTRSSGSIASNYVQWYQQRPGSAPTTVIYEDNQRPSGVPDRFSGSIDSSSNSASLTISGLKTEDEADYYCQSYDSSNSWVFGGGTKLTVLGSRGGGGSGGGGSGGGGSLEMAQVQLVQSGAEVKRPGSSVKVSCTASGGTFSSDAISWVRQAPGQGLEWMGGIIPMFGTANYAQKFQGRVTITADESTSTAYMELSSLRSEDTAVYYCAREGYYYPSAYLGSVLNDISSVYDEWGQGTLVTVSSTSGQAGQHHHHHHGAYPYDVPDYAS", "metricName": "binding result", "observedValue": "no binding"}
{"binder": "ET200-015 (scFv, screened as phage clone; entry is VL-linker-VH-His tag-HA tag) scFv: QSVVTQPPSVSVAPGKTARITCGGNNIGSKSVHWYQQKPGQAPVLVIYYDSDRPSGIPERFSGSNSGNTATLTISRVEAGDEADYYCQVWDSSSDVVFGGGTKLTVLGSRGGGGSGGGGSGGGGSLEMAEVQLVQSGAEVKKPGASVKVSCKASGYTFTSYGISWVRQAPGQGLEWMGWISAYNGNTNYAQKLQGRVTMTTDTSTSTAYMELRSLRSDDTAVYYCARWGGFGAVDHWGQGTLVTVSSTSGQAGQHHHHHHGAYPYDVPDYAS", "metricName": "binding result", "observedValue": "no binding"}
{"binder": "ET200-113 (scFv, screened as phage clone; entry is VL-linker-VH-His tag-HA tag) scFv: QSVVTQPPSVSAAPGQKVTISCSGSSSNIGNNYVSWYQQLPGTAPKLLIYDNNKRPSGIPDRFSGSKSGTSATLGITGLQTGDEADYYCGTWDSSLSAAYVFGTGTKVTVLGSRGGGGSGGGGSGGGGSLEMAQVQLVQSGAEVKKPGASVKVSCKASGYSFTSYTISWVRQAPGQGLEWMGWVSTYNGLRNYAQNLQGRVTMTTDTLTTTAYMELRSLRSDDTAVYYCVREGSPDYGDFAAFDYWGQGTLVTVSSTSGQAGQHHHHHHGAYPYDVPDYAS", "metricName": "binding result", "observedValue": "no binding"}
{"binder": "ET200-069 (scFv, screened as phage clone; entry is VL-linker-VH-His tag-HA tag; also called ET200-69) scFv: QSVVTQPPSASGTPGQRVTISCSGSSSNIGSNYVYWYQQLPGTAPKLLIYSNNQRPSGVPDRFSGSKSGTSASLAISGLRSEDEADYYCAAWDDSLSGYVFGTGTKLTVLGSRGGGGSGGGGSGGGGSLEMAQVQLQQWGAGLLKPSETLSLTCAVYGGSFSGYYWSWIRQPPGKGLEWIGEINHSGSTNYNPSLKSRVTISVDTSKNQFSLKLSSVTAADTAVYYCARLYEGGYHGWGSWLSSDSWGQGTLVTVSSTSGQAGQHHHHHHGAYPYDVPDYAS", "metricName": "binding result", "observedValue": "no binding"}
